Biological target: Papain (Carica papaya)
Sequence (P00784 134-345): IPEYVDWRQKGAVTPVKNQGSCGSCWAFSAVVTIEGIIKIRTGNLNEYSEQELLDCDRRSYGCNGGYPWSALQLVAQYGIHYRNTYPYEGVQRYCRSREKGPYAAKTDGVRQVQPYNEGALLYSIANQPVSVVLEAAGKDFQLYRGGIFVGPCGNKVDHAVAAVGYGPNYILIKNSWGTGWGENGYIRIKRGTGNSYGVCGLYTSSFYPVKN
Test: Papain KI (Table 1B(ii))
Type: biochemical
Please assign not satisfied whenever Ki is at or above 80 µM, and satisfied whenever it is below.

>  <COMPOUND>
CCOC(=O)C(=O)[C@H](CC)NC(=O)[C@H](CC(C)C)NC(=O)OCc1ccccc1 (racemic)

>  <CAT>
not satisfied

$$$$

A record lists "CCOC(=O)C(=O)[C@H](Cc1ccccc1)NC(=O)[C@H](CC(C)C)NC(=O)[C@H](CC(C)C)NC(=O)OCc1ccccc1" . Is its Ki below 80 µM?
satisfied

A record lists CCOC(=O)C(=O)C(Cc1ccc(Cl)cc1)NC(=O)C(CC(C)C)NC(=O)OCc1ccccc1 (centres unmarked) . Is its Ki below 80 µM?
not satisfied

A record lists "CC(C)C[C@H](NC(=O)OCc1ccccc1)C(=O)N[C@@H](Cc1ccccc1)C(=O)C(=O)OCc1ccccc1" . Is its Ki below 80 µM?
satisfied

A record lists CCCCC(NC(=O)C(CC(C)C)NC(=O)OCc1ccccc1)C(=O)C(=O)OCC (centres unmarked) . Is its Ki below 80 µM?
not satisfied

A record lists CCOC(=O)C(=O)C(Cc1ccccc1)NC(=O)C(CC(C)C)NC(=O)OCc1ccccc1 (centres unmarked) . Is its Ki below 80 µM?
satisfied

A record lists CCCCOC(=O)C(=O)C(CC)NC(=O)C(CC(C)C)NC(=O)OCc1ccccc1 (centres unmarked) . Is its Ki below 80 µM?
satisfied

A record lists CCCC(NC(=O)[C@H](CC(C)C)NC(=O)OCc1ccccc1)C(=O)C(=O)OCC (mixture of isomers) . Is its Ki below 80 µM?
not satisfied

----------
molecular target: Calpain II; test: Calpain II KI (Table 1B(ii)); assay type: biochemical
pKi: −log10 of the molar value.
Answer not met if pKi is under 7, and met if it is 7 or more.

>  <COMPOUND>
CC[C@H](NC(=O)[C@H](CC(C)C)NC(=O)OCc1ccccc1)C(=O)C(=O)OCc1ccccc1

>  <CAT>
not met

$$$$

Please check the record CCOC(=O)C(=O)C(Cc1ccc(Cl)cc1)NC(=O)C(CC(C)C)NC(=O)OCc1ccccc1 (stereo not shown) and state if its pKi is at or above 7.
not met

Please check the record "CCOC(=O)C(=O)[C@H](Cc1ccccc1)NC(=O)[C@H](CC(C)C)NC(=O)[C@H](CC(C)C)NC(=O)OCc1ccccc1" and state if its pKi is at or above 7.
not met

Please check the record "CCCCOC(=O)C(=O)[C@H](Cc1ccccc1)NC(=O)[C@H](CC(C)C)NC(=O)OCc1ccccc1" and state if its pKi is at or above 7.
not met

Please check the record CCCNC(=O)C(=O)C(Cc1ccccc1)NC(=O)C(CC(C)C)NC(=O)OCc1ccccc1 (stereo not shown) and state if its pKi is at or above 7.
met

Please check the record "CC(C)C[C@H](NC(=O)OCc1ccccc1)C(=O)N[C@@H](Cc1ccccc1)C(=O)C(=O)NCc1ccccc1" and state if its pKi is at or above 7.
met

Please check the record CCOC(=O)C(=O)C(CC)NC(=O)C(CC(C)C)NC(=O)C(CC(C)C)NS(=O)(=O)c1ccc2ccccc2c1 (stereo not shown) and state if its pKi is at or above 7.
not met

Please check the record "CCNC(=O)C(=O)[C@H](CC)NC(=O)[C@H](CC(C)C)NC(=O)OCc1ccccc1" and state if its pKi is at or above 7.
not met

Please check the record "CCCNC(=O)C(=O)[C@H](CC)NC(=O)[C@H](CC(C)C)NC(=O)OCc1ccccc1" and state if its pKi is at or above 7.
not met

Please check the record CCOC(=O)C(=O)C(CC)NC(=O)C(CC(C)C)NC(=O)C(C)(C)c1ccccc1 (stereo not shown) and state if its pKi is at or above 7.
not met

----------
biological target: Cathepsin B (Bos taurus); assay: Cathepsin B KI (Table 1B(ii)); format: biochemical; conditions: read-out: KI CathB
ASSAY_READOUT: Ki (µM)
Give a bare numeral; the unit µM is implied.

Solved entries (count: 2):
>  <COMPOUND>
CCCC(NC(=O)[C@H](CC(C)C)NC(=O)OCc1ccccc1)C(=O)C(=O)OCC (mixture of isomers)

>  <ASSAY_READOUT>
Ki

>  <VALUE_OBSERVED>
25

$$$$
>  <COMPOUND>
CCOC(=O)C(=O)C(Cc1ccccc1)NC(=O)C(CC(C)C)NC(=O)OCc1ccccc1 (centres unmarked)

>  <ASSAY_READOUT>
Ki

>  <VALUE_OBSERVED>
340

$$$$

Respond only with Ki recorded for "CCOC(=O)C(=O)[C@H](CC)NC(=O)[C@H](CC(C)C)NC(=O)[C@H](CC(C)C)NS(=O)(=O)c1ccc(C)cc1"
69

Respond only with Ki recorded for CC(C)CC(NC(=O)OCc1ccccc1)C(=O)NC(Cc1ccccc1)C(=O)C(=O)O (centres unmarked)
4.5

Respond only with Ki recorded for CCCCOC(=O)C(=O)C(CC)NC(=O)C(CC(C)C)NC(=O)OCc1ccccc1 (centres unmarked)
4

Respond only with Ki recorded for "CCCNC(=O)C(=O)[C@H](CC)NC(=O)[C@H](CC(C)C)NC(=O)OCc1ccccc1"
8

Respond only with Ki recorded for CCOC(=O)C(=O)C(Cc1ccc(Cl)cc1)NC(=O)C(CC(C)C)NC(=O)OCc1ccccc1 (centres unmarked)
50

Respond only with Ki recorded for CCC(NC(=O)C(CC(C)C)NC(=O)OCc1ccccc1)C(=O)C(=O)O (centres unmarked)
1.5

----------
biological target: Papain (Carica papaya, UniProt P00784); test: Papain inhibition, Ki by Dixon plot (Table PKC1); format: biochemical; details: 0.05M Tris-HCl pH 7.5, 2 mM EDTA, 5 mM cysteine, 1% DMSO, 25° C., substrate Nα-Benzoyl-Arg-AMC; read-out: Ki P (Papain)
ASSAY_READOUT: Ki
Please provide the amount together with its unit, number first.

Solved entries (count: 2):
>  <MOLECULE>
CCOC(=O)C(=O)C(C)NC(=O)C(C)NC(=O)C(C)NC(=O)OCc1ccccc1 (racemic)

>  <ASSAY_READOUT>
Ki

>  <VALUE_OBSERVED>
1500 nM

$$$$
>  <MOLECULE>
CCC(NC(=O)[C@@H]1CCCN1C(=O)[C@H](C)NC(=O)[C@H](C)NC(=O)CCC(=O)OC)C(=O)C(=O)OC (mixture of isomers)

>  <ASSAY_READOUT>
Ki

>  <VALUE_OBSERVED>
700 nM

$$$$

Then there is this molecule:
Respond only with Ki recorded for CCOC(=O)C(=O)C(CC)NC(=O)[C@H](C)NC(=O)[C@H](C)NC(=O)OCc1ccccc1 (mixture of isomers)
900 nM

----------
System: Calpain within platelets
Experiment: Platelet membrane permeation assay, spectrin proteolysis (Examples 4A, 4B)
Format: cell-based, rat
Details: semi-quantitative, 100 μM
Protocol: Platelets were isolated by a modification of the method of Ferrell and Martin, J Biol. Chem., 264:20723-20729 (1989), the disclosure of which is hereby incorporated by reference. Blood (15-20 ml) was drawn from male Sprague-Dawley rats into 100 mM EDTA-citrate containing 10 units heparin, and centrifuged 30 minutes at 1600 rpm at room temperature. […] Platelets were incubated for 5 minutes in the presence of inhibitor. […] Spectrin immunoreactivity on the filters was quantitated by densitometry.
ASSAY_READOUT: platelet assay, semi-quantitative

Solved entries (count: 4):
>  <COMPOUND>
CC(C)C[C@H](NC(=O)OCc1ccccc1)C(=O)N[C@@H](Cc1ccccc1)C(=O)C(=O)OCc1ccccc1

>  <VALUE_OBSERVED>
++

$$$$
>  <COMPOUND>
CCOC(=O)C(=O)[C@H](Cc1ccccc1)NC(=O)[C@H](CC(C)C)NC(=O)[C@H](CC(C)C)NC(=O)OCc1ccccc1

>  <VALUE_OBSERVED>
++

$$$$
>  <COMPOUND>
CCOC(=O)C(=O)C(Cc1ccc(Cl)cc1)NC(=O)C(CC(C)C)NC(=O)OCc1ccccc1 (centres unmarked)

>  <VALUE_OBSERVED>
+

$$$$
>  <COMPOUND>
CCCCOC(=O)C(=O)[C@H](Cc1ccccc1)NC(=O)[C@H](CC(C)C)NC(=O)OCc1ccccc1

>  <VALUE_OBSERVED>
+++

$$$$

# return platelet assay, semi-quantitative of "CC[C@H](NC(=O)[C@H](CC(C)C)NC(=O)OCc1ccccc1)C(=O)C(=O)OCc1ccccc1" (system: Calpain within platelets)
++
